- protocol-description: Pharmacokinetic Assay, single oral dose 100 mg/kg (Table 11)
- Format: in vivo
- condition-details: mouse, C57 female mice, oral (intragastric), plasma
endpoint-name: Cmax (ng/mL)

Completed entries (count: 3):
Entry "COC(=O)[C@@H]1CCCN1Cc1cc2nc(-c3cccc(-c4cccc(-c5nc6cc(CN7CCC[C@H]7C(=O)O)c(OC(F)F)cc6o5)c4C)c3C)oc2cc1OC(F)F" : reported Cmax = ?
374

# repeat for "Cc1c(-c2nc3cc(CN(C)C)c(OC(F)F)cc3o2)cccc1-c1cccc(-c2nc3cc(CN4CCC[C@H]4C(=O)O)c(OC(F)F)cc3o2)c1C"
1470

# repeat for Cc1c(-c2nc3cc(CN4CCC(O)C4)c(OC(F)F)cc3o2)cccc1-c1cccc(-c2nc3cc(CN4CCC[C@H]4C(=O)O)c(OC(F)F)cc3o2)c1C (some centres unmarked)
589

[1] Cc1c(-c2nc3cc(CN4CCC[C@H]4C(=O)O)c(OC(F)F)cc3o2)cccc1-c1cccc(-c2nc3cc(CN4CCC[C@H]4C(=O)O)c(OC(F)F)cc3o2)c1C
[2] Cc1c(-c2nc3cc(CN4CCC[C@H]4C(=O)O)c(OC(F)F)cc3o2)cccc1-c1cccc(-c2nc3cc(CN4CC(C)(C)C4)cc(C(F)(F)F)c3o2)c1C
I'm curious, which of these has a smaller Cmax number: 1 or 2 ? Write the label of whichever entry you select.
1

Values compiled from patent US12187713B2.
